Experiment: Liver microsome stability experiment (beagle dog)
Type: in vitro ADME
Conditions: beagle, dog, liver microsomes, pH 7.4, Beagle dog liver microsomes, 0.5 mg/mL, 1 µM; read-out: CLint(liver)
valueKind: CLint scaled at 1 µM (mL/min/kg)
Output spec: scalar in mL/min/kg, unitless text.

## Task What does the data say about its CLint scaled at 1 µM? Entry: COCCN1CCC(N(Cc2ccc(-c3ccc(C(F)(F)F)cc3)cc2)C(=O)Cn2c(SCc3cccc(F)c3F)cc(=O)c3ccccc32)CC1
## Result 12.4

## Task Fill in the blank: the reported CLint scaled at 1 µM of O=c1nc(OCc2cc(F)c(Oc3ccnc(C(F)(F)F)c3)c(F)c2)cc2n1C[C@H]1CCCN21 [Comparative Example 1, reference compound] is ____.
## Result 15.8
